# method description: Clearance in human liver microsomes
# Format: ADME, Microsome
// reported CLhep predicted for each item listed
Hi! Could you send only the number? It should be in mL/min/kg, unit omitted.

Please review the following examples before continuing.
| compound | recorded value |
| --- | --- |
| CS(=O)(=O)c1ccc2c(c1)CC[C@@H]([C@H]1c3ccccc3-c3cncn31)[C@@H]2O | 6.9 |
| O[C@@H]1c2ccncc2CC[C@H]1[C@H]1c2ccccc2-c2cncn21 | 11 |
| O[C@@H](C[C@H]1c2ccccc2-c2cncn21)C1CCCCC1 | 18 |
| O[C@@H]1CC[C@H]1[C@H]1c2ccccc2-c2cncn21 | 5.9 |
| c1ccc2c(c1)-c1cncn1[C@H]2C1CCCCC1 | 15 |

Query :: Reported CLhep predicted, compound O[C@@H]1CCCC[C@H]1[C@H]1c2ccccc2-c2cncn21 : ____
Result :: 9.7

----------
# method description: AUC (infinity) in mouse
# Format: ADME, organism-based
# Set-up: time infinity
# experimental conditions: in vivo
assay metric: AUC(0-inf) (µM·h)
Hi! Could you send only the number? It should be in µM·h, unit omitted.

| compound | assay metric | recorded value |
| --- | --- | --- |
| O[C@@H]1c2cnccc2CC[C@H]1[C@H]1c2ccccc2-c2cncn21 | AUC(0-inf) | 0.34 |

We next turn to a different compound, shown below.
Query :: Reported AUC(0-inf), compound O[C@@H]1c2ccnn2CC[C@H]1[C@H]1c2ccccc2-c2cncn21 : ____
Result :: 0.81

----------
# method description: Clearance in mouse liver microsomes
# Type: ADME, Microsome
One threshold, 70 mL/min/kg, splits the recorded CLhep predicted values: lower ones are rule met, equal or higher ones are rule not met.

| compound | label |
| --- | --- |
| CS(=O)(=O)c1ccc2c(c1)[C@@H](O)[C@H]([C@H]1c3ccccc3-c3cncn31)CC2 | rule met |
| O[C@@H]1c2ccncc2CC[C@H]1[C@H]1c2ccccc2-c2cncn21 | rule met |
| O[C@@H]1CCCC[C@H]1[C@H]1c2ccccc2-c2cncn21 | rule met |
| c1ccc2c(c1)-c1cncn1[C@H]2C1CCCCC1 | rule not met |

Query :: Hi there! Is CLhep predicted for O[C@@H]1c2nonc2CC[C@H]1[C@H]1c2ccccc2-c2cncn21 below 70 mL/min/kg, do you know?
Result :: rule met

----------
// reported EC50 for each item listed
# subject of test: Indoleamine 2,3-dioxygenase 1 (Homo sapiens, UniProt P14902)
# Sequence (P14902 whole entry): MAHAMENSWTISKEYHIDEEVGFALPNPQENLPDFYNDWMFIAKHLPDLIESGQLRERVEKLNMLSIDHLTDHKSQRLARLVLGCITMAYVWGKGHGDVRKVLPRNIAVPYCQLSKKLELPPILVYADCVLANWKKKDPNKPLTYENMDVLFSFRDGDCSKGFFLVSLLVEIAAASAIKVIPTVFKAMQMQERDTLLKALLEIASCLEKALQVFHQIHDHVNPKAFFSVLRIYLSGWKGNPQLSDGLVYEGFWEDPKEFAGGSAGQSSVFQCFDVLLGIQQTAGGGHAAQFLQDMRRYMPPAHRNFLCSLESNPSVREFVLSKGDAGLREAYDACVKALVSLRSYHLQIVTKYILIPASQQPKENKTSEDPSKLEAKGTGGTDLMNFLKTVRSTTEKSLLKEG
# method description: Inhibition of IDO1 in human A172 cells after 24 hrs in presence of IFNgamma by NFK green reagent based assay
Hi! Could you send only the number? It should be in nM, unit omitted.

| compound | EC50 / nM |
| --- | --- |
| O[C@@H]1COCC[C@H]1[C@H]1c2ccccc2-c2cncn21 | 1600 |
| CP(C)(=O)c1ccc2c(c1)[C@@H](O)[C@H]([C@H]1c3ccccc3-c3cncn31)CC2 | 10000 |
| O[C@@H]1CCCC[C@H]1[C@H]1c2ccccc2-c2cncn21 | 720 |
| O[C@@H]1CC[C@H]1[C@H]1c2ccccc2-c2cncn21 | 1400 |
| CS(=O)(=O)c1ccc2c(c1)CC[C@@H]([C@H]1c3ccccc3-c3cncn31)[C@@H]2O | 1300 |

Query :: Reported EC50, compound C[C@H]([C@H](O)C1CCCCC1)[C@H]1c2ccccc2-c2cncn21 : ____
Result :: 670

Query :: Reported EC50, compound Cn1ncc2c1CC[C@@H]([C@H]1c3ccccc3-c3cncn31)[C@@H]2O : ____
Result :: 13000

Query :: Reported EC50, compound O[C@@H]1c2nonc2CC[C@H]1[C@H]1c2ccccc2-c2cncn21 : ____
Result :: 4600

Query :: Reported EC50, compound O[C@@H]1c2ccncc2CC[C@H]1[C@H]1c2ccccc2-c2cncn21 : ____
Result :: 800

----------
// reported Vd for each item listed
# method description: Volume of distribution at steady state in mouse
# Assay type: ADME, organism-based
# experimental conditions: in vivo, read-out: Vdss
Hi! Could you send only the number? It should be in L/kg, unit omitted.

Please review the following examples before continuing.
| compound | reading unit | Vd |
| --- | --- | --- |
| O[C@@H]1c2ccnn2CC[C@H]1[C@H]1c2ccccc2-c2cncn21 | L/kg | 1.1 |
| O[C@@H]1c2nonc2CC[C@H]1[C@H]1c2ccccc2-c2cncn21 | L/kg | 1.1 |

We next turn to a different compound, shown below.
Query :: Reported Vd, compound O[C@@H]1c2cnccc2CC[C@H]1[C@H]1c2ccccc2-c2cncn21 : ____
Result :: 1.4

----------
# method description: Cmax in mouse at 10 mg/kg
# Assay type: ADME, organism-based
# Set-up: dose 10 mg/kg
# experimental conditions: in vivo
assay metric: Cmax
Respond with a number, then the unit of measure.

Query :: Reported Cmax, compound O[C@@H]1c2cnccc2CC[C@H]1[C@H]1c2ccccc2-c2cncn21 : ____
Result :: 4.1 µM

----------
// reported CLhep predicted for each item listed
# method description: Clearance in rat liver microsomes
# Type: ADME, Microsome
Respond with a number, then the unit of measure.

Please review the following examples before continuing.
| compound | assay metric | recorded value |
| --- | --- | --- |
| O[C@@H]1c2nncn2CC[C@H]1[C@H]1c2ccccc2-c2cncn21 | CLhep predicted | 6.1 mL/min/kg |
| c1ccc2c(c1)-c1cncn1[C@H]2C1CCCCC1 | CLhep predicted | 45 mL/min/kg |
| O[C@@H]1c2ccnn2CC[C@H]1[C@H]1c2ccccc2-c2cncn21 | CLhep predicted | 37 mL/min/kg |
| CS(=O)(=O)c1ccc2c(c1)CC[C@@H]([C@H]1c3ccccc3-c3cncn31)[C@@H]2O | CLhep predicted | 46 mL/min/kg |
| O[C@@H]1c2ccccc2CC[C@H]1[C@H]1c2ccccc2-c2cncn21 | CLhep predicted | 47 mL/min/kg |
| O[C@@H](C[C@H]1c2ccccc2-c2cncn21)C1CCCCC1 | CLhep predicted | 45 mL/min/kg |

Query :: Reported CLhep predicted, molecule C[C@H]([C@H](O)C1CCCCC1)[C@H]1c2ccccc2-c2cncn21 : ____
Result :: 42 mL/min/kg

Query :: Reported CLhep predicted, molecule N#Cc1ccc2c(c1)[C@@H](O)[C@H]([C@H]1c3ccccc3-c3cncn31)CC2 : ____
Result :: 44 mL/min/kg

----------
# method description: Cmax in mouse at 100 mg/kg
# Assay type: ADME, organism-based
# Parameters: dose 100 mg/kg
# experimental conditions: in vivo
assay metric: Cmax (µM)
Hi! Could you send only the number? It should be in µM, unit omitted.

Query :: Reported Cmax, molecule O[C@@H]1c2cnccc2CC[C@H]1[C@H]1c2ccccc2-c2cncn21 : ____
Result :: 70

----------
# method description: Apparent permeability across apical to basolateral side in MDCK cells
# Assay type: ADME, cell-based, Canis lupus familiaris
# experimental conditions: dog
assay metric: Papp A→B (×10⁻⁶ cm/s)
Hi! Could you send only the number? It should be in ×10⁻⁶ cm/s, unit omitted.

Please review the following examples before continuing.
| compound | Papp A→B (×10⁻⁶ cm/s) |
| --- | --- |
| O[C@@H]1c2ccnn2CC[C@H]1[C@H]1c2ccccc2-c2cncn21 | 13 |
| O[C@@H]1c2nonc2CC[C@H]1[C@H]1c2ccccc2-c2cncn21 | 23 |
| O[C@@H]1c2cnccc2CC[C@H]1[C@H]1c2ccccc2-c2cncn21 | 11 |

Query :: Reported Papp A→B, compound N#Cc1ccc2c(c1)[C@@H](O)[C@H]([C@H]1c3ccccc3-c3cncn31)CC2 : ____
Result :: 1.7

----------
# method description: Clearance in mouse liver microsomes
# Type: ADME, Microsome
// label = true (1) if CLhep predicted is not less than 70 mL/min/kg, otherwise false (0)

| compound | label |
| --- | --- |
| NC(=O)c1ccc2c(c1)[C@@H](O)[C@H]([C@H]1c3ccccc3-c3cncn31)CC2 | false (0) |

Query :: Record C[C@H]([C@H](O)C1CCCCC1)[C@H]1c2ccccc2-c2cncn21 ; criterion: CLhep predicted no lower than 70 mL/min/kg. Met?
Result :: true (1)

Query :: Record O[C@@H](C[C@H]1c2ccccc2-c2cncn21)C1CCCCC1 ; criterion: CLhep predicted no lower than 70 mL/min/kg. Met?
Result :: true (1)

Query :: Record O[C@@H]1c2nncn2CC[C@H]1[C@H]1c2ccccc2-c2cncn21 ; criterion: CLhep predicted no lower than 70 mL/min/kg. Met?
Result :: false (0)

Query :: Record O[C@@H]1CC[C@H]1[C@H]1c2ccccc2-c2cncn21 ; criterion: CLhep predicted no lower than 70 mL/min/kg. Met?
Result :: false (0)

----------
# method description: Clearance in mouse liver microsomes
# Assay type: ADME, Microsome
assay metric: CLhep predicted (mL/min/kg)
Hi! Could you send only the number? It should be in mL/min/kg, unit omitted.

Please review the following examples before continuing.
| compound | CLhep predicted (mL/min/kg) |
| --- | --- |
| O[C@@H]1c2cnccc2CC[C@H]1[C@H]1c2ccccc2-c2cncn21 | 71 |
| Cn1ncc2c1CC[C@@H]([C@H]1c3ccccc3-c3cncn31)[C@@H]2O | 46 |
| CP(C)(=O)c1ccc2c(c1)[C@@H](O)[C@H]([C@H]1c3ccccc3-c3cncn31)CC2 | 39 |
| CS(=O)(=O)c1ccc2c(c1)CC[C@@H]([C@H]1c3ccccc3-c3cncn31)[C@@H]2O | 81 |
| O[C@@H]1CCC[C@H]1[C@H]1c2ccccc2-c2cncn21 | 59 |

Query :: Reported CLhep predicted, compound O[C@@H]1c2ccnn2CC[C@H]1[C@H]1c2ccccc2-c2cncn21 : ____
Result :: 45

Query :: Reported CLhep predicted, compound N#Cc1ccc2c(c1)[C@@H](O)[C@H]([C@H]1c3ccccc3-c3cncn31)CC2 : ____
Result :: 79

Query :: Reported CLhep predicted, compound O[C@@H]1c2ccccc2CC[C@H]1[C@H]1c2ccccc2-c2cncn21 : ____
Result :: 75

Reference for the values: ChEMBL document CHEMBL4342513
